target: Gastrin receptor (gastric glands) (Cavia porcellus); construct: The washed guinea pig gastric glands prepared as above were resuspended; from tissue; host or cells: guinea pig gastric mucosal glands (male Hartley); experiment: Gastrin Receptor Binding in Guinea Pig Gastric Glands; set-up: species or system guinea pig (male Hartley); conditions: ^125 I-gastrin, 25° C., 30 minutes, read-out: IC50 ^125 I-Gastrin Gastric Glands
Label key: met means IC50 under 5000 nM; not met means IC50 of 5000 nM or more.

Example results:
compound	class
CCN(CC)C(=O)C(C)N1C(=O)C(NC(=O)Nc2ccc(Cl)cc2)N=C(c2ccccc2)c2ccccc21 (single isomer, unassigned) [Example 249]	met
CN1C(=O)[C@H](NC(=O)c2ccc(Cl)cc2)N=C(c2ccccc2F)c2ccccc21 [Example 90]	not met
CSC1=N[C@@H](Cc2c[nH]c3ccccc23)C(=O)N(C)c2ccccc21 [Example 8]	not met
CC(C)(C)OC(=O)N[C@@H](Cc1ccccc1)C(=O)NC1N=C(c2ccccc2)c2ccccc2NC1=O (mixture of isomers) [Example 82]	not met

Q: # strict comparison: is reported IC50 < 5000 nM? input = CN1C(=O)[C@@H](NC(=O)Nc2ccccc2Cl)N=C(c2ccccc2)c2ccccc21 [Example 276]
Result: met

====

Molecular target: Gastrin receptor (gastric glands) (Cavia porcellus)
Construct: The washed guinea pig gastric glands prepared as above were resuspended; from tissue; host or cells: guinea pig gastric mucosal glands (male Hartley)
Sequence (H0VZC5 1-426): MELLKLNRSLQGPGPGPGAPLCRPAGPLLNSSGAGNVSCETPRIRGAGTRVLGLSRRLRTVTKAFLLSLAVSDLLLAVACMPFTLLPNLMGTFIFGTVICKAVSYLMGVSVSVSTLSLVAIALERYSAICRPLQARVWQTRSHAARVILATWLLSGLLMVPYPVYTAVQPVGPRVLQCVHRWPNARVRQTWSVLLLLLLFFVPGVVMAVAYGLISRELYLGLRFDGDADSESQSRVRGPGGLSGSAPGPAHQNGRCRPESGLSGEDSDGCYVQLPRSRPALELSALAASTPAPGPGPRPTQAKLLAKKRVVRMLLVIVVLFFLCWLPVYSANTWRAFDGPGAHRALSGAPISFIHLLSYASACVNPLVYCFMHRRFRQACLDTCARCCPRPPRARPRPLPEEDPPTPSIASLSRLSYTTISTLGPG
Assay: Gastrin Receptor Binding in Guinea Pig Gastric Glands
Design: species or system guinea pig (male Hartley)
Conditions: IC50 ^125 I-Gastrin Gastric Glands, 25° C., 30 minutes
pIC50: −log10 of the molar value.
Rule: pIC50 under 6 gives false, otherwise true.

Example results:
compound	class
O=C(O)CN1C(=O)C(NC(=O)c2cc3ccccc3[nH]2)N=C(c2ccccc2F)c2ccccc21 (racemic) [Example 113]	true
O=C(NC1N=C(c2ccccc2)c2ccccc2NC1=O)c1cccc2ccccc12 (racemic) [Example 166]	false
CN1C(=O)[C@H](NC(=O)Nc2cccc(Br)c2)N=C(c2ccccc2)c2ccccc21 [Example 282]	true

Q: hey, is pIC50 for this one >= 6? O=C(Cc1c[nH]c2ccccc12)NC1N=C(c2ccccc2)c2ccccc2NC1=O (racemic) [Example 76]
Result: false

Q: hey, is pIC50 for this one >= 6? O=C(CNc1ccccc1)NC1N=C(c2ccccc2F)c2ccccc2NC1=O (racemic) [Example 125]
Result: false

Q: hey, is pIC50 for this one >= 6? N#Cc1ccc(C(=O)NC2N=C(c3ccccc3)c3ccccc3NC2=O)cc1 (racemic) [Example 149]
Result: false

Q: hey, is pIC50 for this one >= 6? CN1C(=O)C(NC(=O)c2cc3ccccc3n2C)N=C(c2ccccc2F)c2ccccc21 (racemic) [Example 81b]
Result: false

Q: hey, is pIC50 for this one >= 6? O=C(N[C@H]1N=C(c2ccccc2)c2ccccc2NC1=O)c1cc2ccccc2[nH]1 [Example 187]
Result: false

====

molecular target: CCK receptor (brain, cerebral cortex) (Cavia porcellus); construct: Cerebral cortex was dissected and used as a receptor source; from tissue; host or cells: guinea pig cerebral cortex membranes (male Hartley); assay: biochemical; format: binding, Male Hartley guinea pigs; details: guinea pig cerebral cortex, ^125 I-CCK-33, 25° C., 2 hours; read-out: IC50 ^125 I-CCK Brain
measured.metric: IC50 (nM)
Answer format: numeric, nM implied, no suffix.

molecule	result.number
CN1C(=O)[C@@H](NC(=O)c2cccc(I)c2)N=C(c2ccccc2F)c2ccccc21 [Example 167]	1700
CCN(CC)C(=O)CN1C(=O)C(NC(=O)Nc2cccc(OC)c2)N=C(c2ccccc2)c2ccccc21 (stereo not drawn) [Example 285]	0.22
COc1cccc(CC(=O)N[C@@H]2N=C(c3ccccc3)c3ccccc3N(C)C2=O)c1 [Example 269]	690
CN1C(=O)[C@H](NC(=O)c2cccc(I)c2)N=C(c2ccccc2F)c2ccccc21 [Example 168]	2400
O=C(Nc1ccc(Cl)cc1)NC1N=C(c2ccccc2)c2ccccc2N(CC(=O)OCc2ccccc2)C1=O (stereo not drawn) [Example 208]	44
CN1C(=O)C(NC(=O)Nc2cccc3ccccc23)N=C(c2ccccc2)c2ccccc21 (stereo not drawn) [Example 273]	79

Fill in: CCK receptor (brain, cerebral cortex) (Cavia porcellus) IC50 for COc1cccc(CC(=O)N[C@H]2N=C(c3ccccc3)c3ccccc3N(C)C2=O)c1 [Example 268] = 2100

Fill in: CCK receptor (brain, cerebral cortex) (Cavia porcellus) IC50 for CCN(CC)C(=O)CN1C(=O)C(NC(=O)OCc2ccccc2)N=C(c2ccccc2)c2ccccc21 (stereo not drawn) [Example 222] = 150

====

Biological target: CCK receptor (pancreas) (Rattus norvegicus, UniProt P30551)
Construct: The whole pancreas was dissected free of fat tissue and was homogenized; from tissue; host or cells: rat pancreas membranes (Sprague-Dawley)
Sequence (P30551 1-444): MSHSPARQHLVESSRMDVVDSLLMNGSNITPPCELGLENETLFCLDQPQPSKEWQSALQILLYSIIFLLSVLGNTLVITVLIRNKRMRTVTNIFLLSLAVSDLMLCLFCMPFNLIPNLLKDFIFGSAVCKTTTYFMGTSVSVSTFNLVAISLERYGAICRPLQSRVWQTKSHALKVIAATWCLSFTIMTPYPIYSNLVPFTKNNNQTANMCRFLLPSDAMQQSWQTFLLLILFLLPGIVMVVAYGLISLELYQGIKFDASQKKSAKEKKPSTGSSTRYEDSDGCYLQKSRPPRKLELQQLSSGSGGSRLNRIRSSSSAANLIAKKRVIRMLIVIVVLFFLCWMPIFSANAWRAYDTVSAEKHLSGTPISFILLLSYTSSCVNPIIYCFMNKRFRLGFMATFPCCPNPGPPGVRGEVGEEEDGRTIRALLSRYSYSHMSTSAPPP
Assay: CCK Receptor Binding (Pancreas): inhibition of ^125 I-CCK-33 binding
Design: species or system Male Sprague-Dawley rats
Settings: rat pancreas membranes, ^125 I-CCK-33, 37° C., 30 minutes; read-out: IC50 ^125 I-CCK Pancreas
measured.metric: IC50 (nM)
Answer format: numeric, nM implied, no suffix.

Solved cases (3 shown):
compound	IC50 (nM)
CN1C(=O)C(NC(=O)c2ccc(Br)cc2)N=C(c2ccccc2)c2ccccc21 (stereo not shown)	1
CN1C(=O)[C@H](NC(=O)Nc2cccc(Br)c2)N=C(c2ccccc2)c2ccccc21	840
CN1C(=O)[C@@H](NC(=O)C2CCCCC2)N=C(c2ccccc2)c2ccccc21	800

Please turn your attention to the following entry.
Fill in: CCK receptor (pancreas) (Rattus norvegicus, UniProt P30551) IC50 for CN1C(=O)[C@@H](NC(=O)c2ccc(C(F)(F)F)cc2)N=C(c2ccccc2)c2ccccc21 = 1.3

====

Molecular target: CCK receptor (pancreas) (Rattus norvegicus)
Construct: The whole pancreas was dissected free of fat tissue and was homogenized; from tissue; host or cells: rat pancreas membranes (Sprague-Dawley)
Sequence (P30551 1-444): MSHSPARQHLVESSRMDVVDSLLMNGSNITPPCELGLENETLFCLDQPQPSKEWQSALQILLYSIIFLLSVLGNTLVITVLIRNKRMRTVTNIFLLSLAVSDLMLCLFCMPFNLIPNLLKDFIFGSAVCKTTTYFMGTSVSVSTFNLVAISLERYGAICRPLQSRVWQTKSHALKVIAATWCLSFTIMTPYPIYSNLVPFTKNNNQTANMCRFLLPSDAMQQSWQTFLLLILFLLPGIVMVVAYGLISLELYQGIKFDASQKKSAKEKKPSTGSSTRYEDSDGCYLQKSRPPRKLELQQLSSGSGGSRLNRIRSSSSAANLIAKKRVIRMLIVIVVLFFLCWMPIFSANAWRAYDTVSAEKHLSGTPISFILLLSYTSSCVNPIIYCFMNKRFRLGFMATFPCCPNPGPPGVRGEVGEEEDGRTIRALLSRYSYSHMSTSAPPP
Assay: CCK Receptor Binding (Pancreas): inhibition of ^125 I-CCK-33 binding
Design: species or system Male Sprague-Dawley rats
Conditions: IC50 ^125 I-CCK Pancreas, rat pancreas membranes, ^125 I-CCK-33, 37° C., 30 minutes
measured.metric: pIC50
// field semantics: pIC50 = negative decimal log of concentration (mol/L)

Solved cases (3 shown):
compound	tested.system	pIC50
COc1cccc(NC(=O)NC2N=C(c3ccccc3)c3ccccc3NC2=O)c1 (stereo not shown)	CCK receptor (pancreas) (Rattus norvegicus)	7.70
CC(C)(C)C(=O)OCOC(=O)CN1C(=O)C(NC(=O)c2cc3ccccc3[nH]2)N=C(c2ccccc2)c2ccccc21 (stereo not shown)	CCK receptor (pancreas) (Rattus norvegicus)	7.96
O=C(NC1N=C(c2ccccc2F)c2ccccc2NC1=S)OCc1ccccc1 (racemic)	CCK receptor (pancreas) (Rattus norvegicus)	6.00

Please turn your attention to the following entry.
Consider COc1cccc(NC(=O)NC2N=C(c3ccccc3)c3ccc(C)cc3N(C)C2=O)c1 (stereo not shown) . Its measured pIC50 is 8.52
